Molecular target: T1, human 5T4 (trophoblast glycoprotein), endogenous on the cell surface (human, UniProt Q13641 32-420)
T1 construct: also called TPBG; 5T4 oncofetal antigen
T1 sequence: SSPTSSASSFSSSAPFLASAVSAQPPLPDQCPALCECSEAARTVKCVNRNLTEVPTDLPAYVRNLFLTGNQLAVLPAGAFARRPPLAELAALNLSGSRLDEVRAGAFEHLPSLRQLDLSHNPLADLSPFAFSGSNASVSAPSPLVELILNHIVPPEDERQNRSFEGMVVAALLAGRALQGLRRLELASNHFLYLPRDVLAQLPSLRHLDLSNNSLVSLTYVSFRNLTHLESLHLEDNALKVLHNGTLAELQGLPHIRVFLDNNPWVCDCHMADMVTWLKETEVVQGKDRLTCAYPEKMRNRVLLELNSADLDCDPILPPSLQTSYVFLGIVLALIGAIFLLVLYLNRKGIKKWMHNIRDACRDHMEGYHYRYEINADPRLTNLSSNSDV
Assay: flow cytometry (FL4H median), sdAb-Fc titrated on 5T4-positive T47D cells
quantityName: binding result

binder="hz12E9v6 sdAb-Fc (Fc fusion, Humanized variant of 12E9, linked to a human Fc; not shown: human Fc) EVQLVESGGGEVQAGGSLRLSCAASRRPFSSKTMAWFRQTPGKEREFVAAVRWIGGATRYAESVKGRFTISRDNAKNTVYLQMSSLRAEDTAVYYCAAGQAWGTKFTDYSDWGQGTLVTVKP" observedmeasurement=binds
binder="hz12E9v1 sdAb-Fc (Fc fusion, Humanized variant of 12E9, linked to a human Fc; not shown: human Fc) EVQLVESGGGEVQPGGSLRLSCAASRRPFSSKTMAWFRQAPGKGREFVAAVRWIGGATRYAESVKGRFTISRDNAKNTLYLQMSSLRAEDTAVYYCAAGQAWGTKFTDYSDWGQGTLVTVKP" observedmeasurement=binds
